- run_description: basal MM1S mitochondrial membrane potential changes, profiling panel, cell-based, JC-1 fluorescence, 24 h, 100 nL compound (AID 1170); further: test concentration not given here
- particulars: higher = more signal
Assign class by z-score: not lower than -0.2 means label 1; lower than -0.2 means label 0.

Query: Reported z-score at or above -0.2? CC(C)c1ccc(NN2C(C(O)c3ccc4c(c3)OCO4)C=CC3C(=O)N(c4ccccc4)C(=O)C32)cc1 (stereo unspecified)
Result: label 1

Query: Reported z-score at or above -0.2? `COC(=O)[C@@]1(Cc2ccc(F)cc2)[C@@H]2C(=CC(=O)[C@H]2CC(=O)C(=O)N(C)C)CN1C(=O)c1ccccc1`
Result: label 0

Query: Reported z-score at or above -0.2? `COC(=O)[C@@]1(Cc2ccccc2)[C@H]2c3cc(C(=O)N4CCCC4)n(Cc4ccccn4)c3C[C@H]2CN1C(=O)c1ccccc1`
Result: label 1

Query: Reported z-score at or above -0.2? `CC(C)[C@H](NC(=O)OC(C)(C)C)[C@@H](O)CC(=O)OC(C)(C)C`
Result: label 1

Query: Reported z-score at or above -0.2? `COC(=O)c1c(CC[C@@H](CO)NC(=O)N[C@H](Cc2ccccc2)Cn2cc(-c3ccccc3N)nn2)oc(C(C)=O)c1C(=O)OC`
Result: label 1

Query: Reported z-score at or above -0.2? COC(=O)C1=CCC(c2cccc(Cl)c2)O1 (stereo unspecified)
Result: label 0

Query: Reported z-score at or above -0.2? `CN(C)CCCNC(=O)[C@@H]1c2ccccc2C(=O)N(Cc2ccccc2)[C@H]1c1ccc(CO)cc1`
Result: label 1

Query: Reported z-score at or above -0.2? `CC(=O)OC[C@H]1O[C@H](CCON=C(C)CCN2CCc3nc(-c4ccccc4)c(-c4ccccc4)cc3C2)C=C[C@@H]1OC(C)=O`
Result: label 0

Query: Reported z-score at or above -0.2? CN(C)c1ccc(C(O)C2C=CC3C(=O)N(c4ccccc4)C(=O)C3N2Nc2ccccc2F)cc1 (stereo unspecified)
Result: label 1

Query: Reported z-score at or above -0.2? `O=C1C[C@@H](O)[C@@H](O)[C@@H]2[C@@H]3C(=O)N(c4cccc(Oc5ccccc5)c4)C(=O)[C@@H]3CC[C@@H]12`
Result: label 1

Query: Reported z-score at or above -0.2? `CCOC(=O)NN=C1C[C@@H](O)[C@@H](O)[C@@H]2[C@@H]3C(=O)N(C(C)(C)C)C(=O)[C@@H]3CC[C@@H]12`
Result: label 1

Query: Reported z-score at or above -0.2? `CCN1C(=O)[C@H]2[C@H]3[C@H](O)[C@H](O)CC(=NO[C@@H]4O[C@H](CO)[C@@H](O)[C@H](O)[C@H]4O)[C@@H]3CC[C@H]2C1=O`
Result: label 0

Query: Reported z-score at or above -0.2? `C#CCCCON=C1C[C@@H](O)[C@@H](O)[C@@H]2[C@@H]3C(=O)N([C@@H](C)c4ccccc4)C(=O)[C@@H]3CC[C@H]12`
Result: label 0

Query: Reported z-score at or above -0.2? `CC(C)=NOCc1ccc(-c2cc(-c3ccccc3)no2)cc1`
Result: label 1

Query: Reported z-score at or above -0.2? `CC(=O)OC[C@H]1O[C@H](CCON=C[C@@H](C)[C@H](OCc2ccccc2)C(C)C)C=C[C@@H]1OC(C)=O`
Result: label 1

Query: Reported z-score at or above -0.2? CC1(C)OCC(C(O)C2=CCCCC2=O)CO1 (stereo unspecified)
Result: label 1
